system: Y79; assay: Alamar Blue proliferation (cytotoxicity) assay, Y79; assay type: cell-based; conditions: Homo sapiens; Y79 (retinoblastoma)
Recorded IC50 values for a group of compounds are listed next.
Experimental Endpoint: IC50

INSERT INTO assay_data (compound, target_or_test_system, result) VALUES
  ('COC1=C[C@]23CCCN2CCc2cc4c(cc2[C@@H]3[C@@H]1OC(=O)[C@@]1(CCC(C)C)CC(=O)O1)OCO4', 'Y79', '> 100 µM'),
  ('CCC[C@@](O)(CC(=O)OC)C(=O)O[C@@H]1C(OC)=C[C@]23CCCN2CCc2cc4c(cc2[C@H]13)OCO4', 'Y79', '> 100 µM'),
  ('COC(=O)C[C@@]1(C(=O)O[C@@H]2C(OC)=C[C@]34CCCN3CCc3cc5c(cc3[C@H]24)OCO5)CCC(C)(C)O1 [Cmpd 5, Anhydroharringtonine, reference compound]', 'Y79', '> 100 µM'),
  ('COC(=O)C[C@](O)(CCC(C)C)C(=O)O[C@@H]1C(OC)=C[C@]23CCCN2CCc2cc4c(cc2[C@H]13)OCO4 [Cmpd 2, Deoxyharringtonine, reference compound]', 'Y79', '70.6 µM'),
  ('CCC[C@]1(C(=O)O[C@@H]2C(OC)=C[C@]34CCCN3CCc3cc5c(cc3[C@H]24)OCO5)CC(=O)O1', 'Y79', '> 100 µM'),
  ('COC(=O)C[C@](O)(C/C=C/C(C)(C)OCc1ccccc1)C(=O)O[C@@H]1C(OC)=C[C@]23CCCN2CCc2cc4c(cc2[C@H]13)OCO4', 'Y79', '> 100 µM');
